// data source = PubChem BioAssay (NCI)

Kindly supply the reported growth inhibition values for the records listed here.
# experimentalProtocol: NCI Yeast Anticancer Drug Screen. Data for the rad50 strain (AID 155);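 further: 0% = growth of vehicle-only cultures of the same strain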
# particulars: S. cerevisiae rad50 strain growth inhibition; at 50.0 µM; active compounds read high
# Protocol: Growth inhibition of yeast strains with defined genetic alterations is measured as a screen for potential anti-cancer activity. Selected strains with alterations in DNA damage repair or cell cycle control were exposed to compounds and growth inhibition was measured relative to vehicle treated controls. The strain used in this assay is rad50
The panel holds about 79,000 compounds, 15% with a hit somewhere; the sample as a whole holds those more often.
Numbers only, in %.

Examples from the recorded data:
[[record]]
molecule = "O=S(=O)(Cc1ccccc1)c1ncc(Cl)cn1"
reading = 8.9

[[record]]
molecule = "Cc1cc(=O)oc2c(C(=O)/C=C/N(C)C)c(O)ccc12"
reading = -29.9

[[record]]
molecule = "CC(=O)/C=C/CCC(=O)/C=C/C(=O)OC(CCC(=O)/C=C/C(=O)O)CC(C)=O (configuration not stated)"
reading = -5.25


Need growth inhibition for each of these molecules.
1. CCOC(=O)c1ccccc1Nc1c(C(=O)OCC)cnc2cc3c(cc12)OCO3
2. c1cc(OCCOc2cccc3ocnc23)c2ncoc2c1
3. COC(=O)c1ccc(OC(=O)Nc2cccc(C(C)=O)c2)cc1

Result:
-13.8
-12.8
14.2

For each of the molecules below, note its growth inhibition.
1. Cc1cc(Cl)ccc1N=NC(=O)NNc1ccc(Cl)cc1C
2. O=C(O)CCC1(c2ccccc2)NC(=O)NC1=O (configuration not stated)
3. CCOC(=O)c1ccc(NC(=O)c2ccc(Cl)cc2Cl)cc1
4. CC(=O)c1cc([N+](=O)[O-])c(O)cc1O
5. CCN(CC)CCOCC1CCCN2CCCCC12 (configuration not stated)
6. COc1ccc(N2C(=O)CC(c3c[nH]c4ccccc34)C2=O)cc1 (configuration not stated)

Result:
35.2
-39.1
-7.7
36.1
-9.5
-29.2
